From: patent US7910622B2

assay-target: LuxR (Aliivibrio fischeri, UniProt P35327)
Construct: a Δ-luxI derivative of V. fischeri ES114, in which the native lux operon behaves as the bioluminescent reporter; endogenous in cells; host or cells: V. fischeri ES114 (Δ-luxI)
Sequence (P35327 whole entry): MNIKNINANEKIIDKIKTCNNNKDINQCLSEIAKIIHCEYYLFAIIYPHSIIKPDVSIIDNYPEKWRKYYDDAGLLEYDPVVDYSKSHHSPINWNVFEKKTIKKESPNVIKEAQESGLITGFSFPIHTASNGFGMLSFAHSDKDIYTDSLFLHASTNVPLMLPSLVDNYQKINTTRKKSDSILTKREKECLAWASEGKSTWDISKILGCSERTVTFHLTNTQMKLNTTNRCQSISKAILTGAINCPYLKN
assay-name: cell-based
Type: cell-based, Vibrio fischeri
condition-details: 5 μM synthetic ligand against 5 μM OHHL; V. fischeri ES114 (Δ-luxI); normalized to OHHL
outcome-measure: V. fischeri-LuxR Inhibition [%] (%)
Give bare numbers, in %.

{"compound": "COc1ccccc1C1CCN(c2ccc(C=CC(=O)NC3CCOC3=O)cc2[N+](=O)[O-])CC1 (centres unmarked)", "units-label": "%", "V. fischeri-LuxR Inhibition [%]": 19}

Report V. fischeri-LuxR Inhibition [%] for each item below.
1. CC(C)(C)OC(=O)NCc1ccc(C(=O)N[C@H]2CCOC2=O)cc1
2. C=CCCC(=O)N[C@H]1CCOC1=O
3. CCCCCCCCCCCCCCCC(=O)N[C@H]1CCOC1=O
4. O=C(CC(=O)N[C@@H]1CCOC1=O)Cc1ccccc1
5. CCOC(=O)/C=C/C(=O)N[C@H]1CCOC1=O

(A)
35
18
27
46
37

###

assay-target: LasR (Pseudomonas aeruginosa, UniProt P25084)
Construct: expressed in transfected cells; host or cells: E. coli DH5α (pJN105L pSC11), arabinose-induced
Sequence (P25084 whole entry): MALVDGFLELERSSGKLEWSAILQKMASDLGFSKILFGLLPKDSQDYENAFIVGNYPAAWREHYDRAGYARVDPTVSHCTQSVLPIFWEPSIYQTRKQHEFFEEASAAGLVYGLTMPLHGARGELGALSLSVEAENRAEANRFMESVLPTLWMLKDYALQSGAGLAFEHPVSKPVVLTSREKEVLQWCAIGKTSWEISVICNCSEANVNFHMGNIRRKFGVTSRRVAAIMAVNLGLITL
assay-name: cell-based
condition-details: 5 μM ligand; E. coli DH5α (pJN105L pSC11); normalized to OdDHL
outcome-measure: E. coli-LasR Activation [%] (%)
Answers are plain numbers, in %.

{"compound": "O=C(Cc1ccc(Br)cc1)N[C@H]1CCOC1=O [compound 8, reference compound]", "units-label": "%", "E. coli-LasR Activation [%]": 0}

Could you report E. coli-LasR Activation [%] for every entry in the following list?
1. CCOC(=O)/C=C/C(=O)N[C@H]1CCOC1=O
2. O=C(CCC(=O)OC(C(=O)c1ccccc1)c1ccccc1)N[C@H]1CCOC1=O (stereo partly drawn)
3. O=C(NC1CCOC1=O)c1ccc(N=Nc2ccccc2)cc1 (stereo not drawn)
4. O=C(Cc1ccccc1I)N[C@H]1CCOC1=O
5. CC(C)(C)OC(=O)NCc1ccc(C(=O)N[C@H]2CCOC2=O)cc1

(A)
0
7
0
0
0

###

Assign A. tumefaciens-TraR Inhibition [%] to each entry below.
assay-target: TraR (Agrobacterium tumefaciens, UniProt P33905)
Construct: These strains lack their AHL synthase (I) genes, but retain their native R genes; endogenous in cells; host or cells: A. tumefaciens WCF47 (Δ-traI) with PtraI-lacZ plasmid pCF372
Sequence (P33905 whole entry): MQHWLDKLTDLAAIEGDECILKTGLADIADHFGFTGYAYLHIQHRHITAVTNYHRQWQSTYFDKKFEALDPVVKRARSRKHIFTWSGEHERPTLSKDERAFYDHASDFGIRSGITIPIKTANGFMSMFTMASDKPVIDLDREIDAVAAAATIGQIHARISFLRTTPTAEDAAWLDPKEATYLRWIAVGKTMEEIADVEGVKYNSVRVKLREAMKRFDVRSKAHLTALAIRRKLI
assay-name: cell-based
condition-details: 10 μM synthetic ligand against 100 nM OOHL; A. tumefaciens WCF47 (pCF372); normalized to OOHL

{"compound": "CC(=O)c1ccc(OCC(=O)N[C@H]2CCOC2=O)cc1C", "outcome-measure": "A. tumefaciens-TraR Inhibition [%]", "result": "92%"}

Respectfully, I request A. tumefaciens-TraR Inhibition [%] for each entry included below.
1. O=C(Cc1ccc(Br)cc1)N[C@H]1CCOC1=O [A17, 4-bromo-phenylacetanoyl HL, reference compound]
2. CC(C)(C)OC(=O)NCc1ccc(C(=O)N[C@H]2CCOC2=O)cc1
3. O=C(CCCc1c[nH]c2ccccc12)N[C@H]1CCOC1=O [A18, indole AHL, reference compound]

(A)
1. 88%
2. 13%
3. 35%

###

assay-target: TraR (Agrobacterium tumefaciens, UniProt P33905)
Construct: These strains lack their AHL synthase (I) genes, but retain their native R genes; endogenous in cells; host or cells: A. tumefaciens WCF47 (Δ-traI) with PtraI-lacZ plasmid pCF372
assay-name: cell-based
condition-details: 10 μM ligand; A. tumefaciens WCF47 (pCF372); normalized to OOHL
Provide the recorded A. tumefaciens-TraR Activation [%] for the entries that follow.
Express the reported value numerically, then name its unit.

Could you tell me A. tumefaciens-TraR Activation [%] for each of these compounds? They are listed below.
1. O=C(Cc1ccccc1[N+](=O)[O-])N[C@H]1CCOC1=O
2. O=C(CC(=O)N[C@@H]1CCOC1=O)Cc1ccccc1 [B2]
3. CCCCCCCCCCCCCCCC(=O)N[C@H]1CCOC1=O
4. O=C(NC1CCOC1=O)c1ccc(N=Nc2ccccc2)cc1 (centres unmarked)
5. O=C(CCCc1c[nH]c2ccccc12)N[C@@H]1CCOC1=O

(A)
1: 0%; 2: 2%; 3: 0%; 4: 0%; 5: 0%

###

assay-target: TraR (Agrobacterium tumefaciens)
Construct: These strains lack their AHL synthase (I) genes, but retain their native R genes; endogenous in cells; host or cells: A. tumefaciens WCF47 (Δ-traI) with PtraI-lacZ plasmid pCF372
assay-name: cell-based
condition-details: 10 μM synthetic ligand against 100 nM OOHL; A. tumefaciens WCF47 (pCF372); normalized to OOHL
outcome-measure: A. tumefaciens-TraR Inhibition [%] (%)
Numbers only, in %.

The cases that follow already have their A. tumefaciens-TraR Inhibition [%] on record.
{"compound": "CCOc1ccc(CC(=O)N[C@H]2CCOC2=O)cc1", "units-label": "%", "A. tumefaciens-TraR Inhibition [%]": 35}
{"compound": "CCCCCCCCCCCCCCCC(=O)N[C@H]1CCOC1=O", "units-label": "%", "A. tumefaciens-TraR Inhibition [%]": 0}
{"compound": "O=C(CCCc1c[nH]c2ccccc12)N[C@@H]1CCOC1=O", "units-label": "%", "A. tumefaciens-TraR Inhibition [%]": 9}
{"compound": "COc1cc(C(C)=O)ccc1OCC(=O)N[C@H]1CCOC1=O", "units-label": "%", "A. tumefaciens-TraR Inhibition [%]": 11}
{"compound": "O=C(CC(=O)N[C@@H]1CCOC1=O)Cc1ccccc1 [B2]", "units-label": "%", "A. tumefaciens-TraR Inhibition [%]": 50}
{"compound": "COc1ccc(CC(=O)N[C@H]2CCOC2=O)cc1", "units-label": "%", "A. tumefaciens-TraR Inhibition [%]": 26}

# return A. tumefaciens-TraR Inhibition [%] for each item in the list
1. O=C(CC1CCCC1)N[C@H]1CCOC1=O
2. C=CCCC(=O)N[C@H]1CCOC1=O
3. COc1ccccc1C1CCN(c2ccc(C=CC(=O)NC3CCOC3=O)cc2[N+](=O)[O-])CC1 (stereo not drawn)

(A)
[11, 5, 16]

###

assay-target: LuxR (Aliivibrio fischeri)
Construct: a Δ-luxI derivative of V. fischeri ES114, in which the native lux operon behaves as the bioluminescent reporter; endogenous in cells; host or cells: V. fischeri ES114 (Δ-luxI)
assay-name: cell-based
Parameters: species or system Vibrio fischeri
condition-details: 200 μM ligand; V. fischeri ES114 (Δ-luxI); normalized to OHHL
Consider the following compounds; for each one, report its V. fischeri-LuxR Activation [%].
Numbers only, in %.

{"compound": "CC(=O)c1ccc(OCC(=O)N[C@H]2CCOC2=O)cc1C [D17]", "V. fischeri-LuxR Activation [%] / %": 2}
{"compound": "CCCCCCCCCCCS(=O)(=O)N[C@H]1CCOC1=O [A16]", "V. fischeri-LuxR Activation [%] / %": 1}
{"compound": "CCOC(=O)/C=C/C(=O)N[C@H]1CCOC1=O [A20]", "V. fischeri-LuxR Activation [%] / %": 1}
{"compound": "O=C(CC1CCCC1)N[C@H]1CCOC1=O [B12]", "V. fischeri-LuxR Activation [%] / %": 3}
{"compound": "O=C(NC1CCOC1=O)c1ccc(N=Nc2ccccc2)cc1 (stereo not drawn) [D20]", "V. fischeri-LuxR Activation [%] / %": 2}
{"compound": "O=C(Cc1ccccc1[N+](=O)[O-])N[C@H]1CCOC1=O [B18]", "V. fischeri-LuxR Activation [%] / %": 4}

Give V. fischeri-LuxR Activation [%] for each of the items listed below.
1. O=C(Cc1ccc(Br)cc1)N[C@H]1CCOC1=O [compound 8, reference compound]
2. C=CCCC(=O)N[C@H]1CCOC1=O [A23]
3. O=C(Cc1ccc(N=Nc2ccccc2)cc1)NC1CCOC1=O (stereo not drawn) [B22]
4. CC(C)(C)OC(=O)NCc1ccc(C(=O)N[C@H]2CCOC2=O)cc1 [A21]
5. COc1ccc(CC(=O)N[C@H]2CCOC2=O)cc1 [B28]
6. O=C(CCCc1ccccc1)N[C@@H]1CCOC1=O [A26]
7. O=C(CC(=O)N[C@@H]1CCOC1=O)Cc1ccccc1 [B2]
8. O=C(CCC(=O)OC(C(=O)c1ccccc1)c1ccccc1)N[C@H]1CCOC1=O (stereo partly drawn) [D19]

(A)
3
2
3
1
3
3
3
1

(Q) Form entry - test system: LuxR (Aliivibrio fischeri); read-out: V. fischeri-LuxR Activation [%]; compound: COc1ccccc1C1CCN(c2ccc(C=CC(=O)NC3CCOC3=O)cc2[N+](=O)[O-])CC1 (stereo not drawn) [D18]
(A) 2
